Recorded values, source PubChem BioAssay AID1851.

Biological target: Cytochrome P450 1A2 (Homo sapiens) (UniProt P05177)
Sequence (P05177 whole entry, looked up): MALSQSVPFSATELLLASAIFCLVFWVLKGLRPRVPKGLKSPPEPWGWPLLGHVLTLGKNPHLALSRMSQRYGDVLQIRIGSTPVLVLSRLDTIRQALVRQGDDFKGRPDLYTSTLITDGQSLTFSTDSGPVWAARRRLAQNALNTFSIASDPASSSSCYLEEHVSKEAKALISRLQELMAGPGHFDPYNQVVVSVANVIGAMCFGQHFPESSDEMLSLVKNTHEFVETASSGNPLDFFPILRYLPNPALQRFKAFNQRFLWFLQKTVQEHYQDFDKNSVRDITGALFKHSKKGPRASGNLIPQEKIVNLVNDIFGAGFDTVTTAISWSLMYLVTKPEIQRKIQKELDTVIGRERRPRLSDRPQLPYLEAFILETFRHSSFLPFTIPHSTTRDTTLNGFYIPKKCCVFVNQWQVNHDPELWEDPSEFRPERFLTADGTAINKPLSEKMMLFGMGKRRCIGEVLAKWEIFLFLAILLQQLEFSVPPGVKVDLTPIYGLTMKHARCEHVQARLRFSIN
Test: Cytochrome panel assay with activity outcomes
Settings: recombinant CYP, pro-luciferin dealkylation, luminescence, p450-cyp1a2; series mostly up to 57.1 µM
In all, about 16,000 compounds went through this assay and about 5,700 (36%) were called active. About 24% were inconclusive and are not listed. The call rests on the fitted dose curve; in most records, active means well fitted curve in the direction sought with a large enough effect; inconclusive means small, poorly fitted or top-dose-only effect, or effect the other way; inactive means no such curve, though single readings can be large or run the other way. The list shows a part of the results.
Pick one and only one: 1 for active, -1 for inactive

Cc1ccc(CNC(=O)C2CC(c3ccccc3[N+](=O)[O-])=NO2)cc1 (stereo not given) :: 1
COc1cc2cc(CN(CCCO)S(=O)(=O)c3ccccc3Cl)c(=O)[nH]c2cc1OC :: -1
COc1ccc(CNC(=O)CN(CC2CCCO2)C(=O)CNS(=O)(=O)c2ccccc2)cc1 (stereo not given) :: -1
N#Cc1cccc(NC(=O)N2CC[C@@]3(CCCNC3)C2)c1 :: -1
Cc1ccc(NC(=O)CC2CS(=O)(=O)CC2CC(=O)Nc2ccc(C)c(C)c2)cc1C (stereo not given) :: -1
N#C/C(=C/c1cccc(C(F)(F)F)c1)c1nc(CCN2C(=O)c3ccccc3C2=O)cs1 :: 1
Cc1ccc(CNC(=O)C2CC(c3ccccc3[N+](=O)[O-])=NO2)o1 (stereo not given) :: 1
Cc1ccc(CCN2CC(C(=O)NCCCN(C)Cc3ccccc3)CC2=O)cc1 (stereo not given) :: -1
CCN(CC)S(=O)(=O)N1CCC(C(=O)NCc2ccc(C)cc2)CC1 :: -1

# input for lookup
[in] For Cc1ccc(CCNC(=O)C2CC(c3ccccc3[N+](=O)[O-])=NO2)cc1 (stereo not given) , what call appears in the results of this test?
[out] 1

----------
Molecular target: Cytochrome P450 1A2 (Homo sapiens)
Experiment: Cytochrome panel assay with activity outcomes
Details: recombinant CYP, pro-luciferin dealkylation, luminescence, p450-cyp1a2; series mostly up to 57.1 µM
The whole screen tested about 16,000 compounds, of which about 5,700 (36%) were called active. About 24% were inconclusive and are not listed. Calls follow the shape of the dose curve; as a rule, active = well fitted curve in the direction sought with a large enough effect; inconclusive = small, poorly fitted or top-dose-only effect, or effect the other way; inactive = no such curve, though single readings can be large or run the other way. This is one part of the list.
Pick one and only one: TRUE = active, FALSE = inactive

For orientation, consider the following solved cases.
CN(C)Cc1ccccc1-c1nc(NC2CC2)c2ccccc2n1 :: TRUE
CCc1nnc(NS(=O)(=O)c2ccc(N=Cc3c(C)[nH]n(-c4ccc(C)cc4)c3=O)cc2)s1 :: FALSE
CCOc1[nH]n(-c2ccc(Cl)cc2)c(=O)c1C=Nc1ccc(Cl)cc1 :: TRUE

[in] For COc1ccccc1CN1CC[C@@]2(CCCN(C(C)=O)C2)C1 , what call appears in the results of this test?
[out] FALSE

[in] Input CCOC(=O)C1CCN(c2c(NCc3ccc(C(=O)NCCC(C)C)cc3)c(=O)c2=O)CC1
[out] FALSE

----------
Biological target: Cytochrome P450 1A2 (Homo sapiens) (UniProt P05177)
Assay: Cytochrome panel assay with activity outcomes; on activity, negative = inhibition: on the % scale 0 is the no-effect control and ±100 the full control effect
Conditions: recombinant CYP, pro-luciferin dealkylation, luminescence, p450-cyp1a2; series mostly up to 57.1 µM
The campaign covered roughly 16,000 compounds. About 5,700 (36%) were called active. Another 24% or so got no clear call; they are omitted. The list shows a part of the results.
MEASURE: activity, negative = inhibition

[in] Entry under review: COc1ccc(COC(=O)N/N=C2/C[C@@H](O)[C@@H](O)[C@@H]3[C@@H]4C(=O)N(c5cccc(Oc6ccccc6)c5)C(=O)[C@H]4CC[C@@H]23)cc1 . Reported activity, negative = inhibition?
[out] -36.2% [at 11.4 µM] (inactive)

[in] Input Cc1ccc(S(=O)(=O)N[C@H](CN)C(=O)O)cc1
[out] -18.5% [at 2.29 µM] (inactive)

[in] Input Cc1nnc(S(=O)(=O)c2ccc(N=Nc3c(N)nc(N)nc3N)cc2)s1
[out] -10.2% [at 2.29 µM] (inactive)

[in] Input CCO[P@]1(=O)OC[C@@H]2O[C@H](n3cnc4c(N)ncnc43)[C@H](O)[C@@H]2O1
[out] -15.6% [at 2.29 µM] (inactive)

[in] Input O=C(O)Cc1c(O)ccc2ccccc12
[out] -9.69% [at 11.4 µM] (inactive)

----------
Target: Cytochrome P450 1A2 (Homo sapiens) (UniProt P05177)
Assay: Cytochrome panel assay with activity outcomes
Settings: recombinant CYP, pro-luciferin dealkylation, luminescence, p450-cyp1a2; series mostly up to 57.1 µM
Experimental: The P450 gene superfamily is involved in the metabolism and clearance of xenobiotics. This assay used various human CYP P450 isozymes to measure the dealkylation of various pro-luciferin substrates to luciferin. The luciferin is then measured by luminescence after the addition of a luciferase detection reagent. […] Inhibitors and some substrates limit the production of luciferin, and decrease measured luminescence. […] 8, Detection, 1 sec, ViewLux luminescent read […]
In all, about 16,000 compounds went through this assay and about 5,700 (36%) were called active. Another 24% or so got no clear call; they are omitted. Calls come from the whole dose curve; as a rule, active = well fitted curve in the direction sought with a large enough effect; inconclusive = small, poorly fitted or top-dose-only effect, or effect the other way; inactive = no such curve, though single readings can be large or run the other way. Some of the results follow.
Pick one and only one: active, inactive

For orientation, consider the following solved cases.
COc1ccc(CCNc2nc(-c3cccnc3)cs2)cc1OC :: active
COc1ccccc1CNc1cc(-c2cccnc2)ncn1 :: active
CN(C)c1ncnc2ccc(-c3cccnc3)cc12 :: active
CCOC(=O)c1c(C)nc2c(c1-c1ccccc1)C(=O)CC(C)(C)C2 :: active
COc1ccccc1-c1nnc(SCc2nc3ccccc3s2)n1C :: active

[in] For CN(C)c1oc(-c2ccccc2)nc1C#N , what call appears in the results of this test?
[out] active

[in] Input COc1ccc(NC(=O)OC(C)C)cc1
[out] active

[in] Input Cc1nn(C)c(Cl)c1NC(=O)OCc1ccc(Cl)cc1Cl
[out] active

[in] Input COc1ccc(NC(=O)C(c2ccc(OC)cc2)N(C)C(=O)CNC(C)=O)cc1 (centres undefined)
[out] inactive

[in] Input CCCCCCCCCCCCCCCCCC(=O)O[C@H](CC(=O)O)C[N+](C)(C)C
[out] inactive

[in] Input CN1CC(c2ccccn2)C2(SC(=S)N(Cc3ccccc3)C2=O)C12C(=O)Nc1ccccc12 (centres undefined)
[out] active

[in] Input COc1ccc(NC(=O)N2CCCC3(CCNCC3)C2)cc1
[out] inactive

[in] Input Cc1ccc(C)c(NC(=O)c2ncn[nH]2)c1
[out] active

[in] Input COc1ccc(Nc2ncnc3sc(-c4ccccc4)cc23)cc1
[out] active

[in] Input O=C(NC12CC3CC(CC(C3)C1)C2)C12CC3CC(C1)CC(n1cnc(Cl)n1)(C3)C2
[out] inactive

[in] Input Cc1nn(C)c(Cl)c1NC(=O)OCc1ccc(F)cc1
[out] active

[in] Input Cc1cccc(NC(=S)NNC(=O)c2csc3c2CCCC3)c1
[out] active

[in] Input CCc1c(C)c(C#N)c2nc3ccccc3n2c1N1CCN(c2cc(C)ccn2)CC1
[out] inactive

[in] Input CNc1ncnc2ccc(-c3cccc(OC)c3)cc12
[out] active

[in] Input COc1ccc(CNc2cc(-c3cccnc3)ncn2)c(OC)c1
[out] active

[in] Input Cc1ccc(C)c(NC(=O)C2CC3c4ccccc4C2c2ccccc23)c1 (centres undefined)
[out] inactive

[in] Input CN1CC(c2ccccc2)C2(COc3ccccc3C2=O)C12C(=O)Nc1ccccc12 (centres undefined)
[out] inactive

[in] Input N[C@@H](CO)C(=O)NNCc1ccc(O)c(O)c1O
[out] inactive

[in] Input COc1ccc(NC(=O)N2CCC3(CC2)CCN(S(C)(=O)=O)CC3)cc1
[out] inactive

----------
Target: Cytochrome P450 1A2 (Homo sapiens)
Experiment: Cytochrome panel assay with activity outcomes
Conditions: recombinant CYP, pro-luciferin dealkylation, luminescence, p450-cyp1a2; series mostly up to 57.1 µM
The whole screen tested about 16,000 compounds, of which about 5,700 (36%) were called active. Another 24% or so got no clear call; they are omitted. Some of the results follow.
MEASURE: AC50

Worked examples follow.
COC(=O)[C@@]1(Cc2ccccc2)[C@H]2c3cc(C(=O)N4CCCC4)n(Cc4ccc(OC)c(OC)c4)c3C[C@H]2CN1C(=O)c1ccccc1 :: inactive
Cc1ccc(OCC(=O)N2CCN(c3ccc([N+](=O)[O-])c(N4CCOCC4)c3)CC2)cc1 :: inactive
CCSc1nc2c(c(=O)[nH]1)C(c1ccncc1)C(C(=O)OC(C)C)=C(C)N2 (stereo unspecified) :: 15.8 µM (active)
O=C(c1ccncc1)N1CCC[C@@]2(CCN(c3ncccn3)C2)C1 :: inactive

[in] Fill in the recorded AC50 for this compound, with Cytochrome P450 1A2 (Homo sapiens) as test system: COC(=O)c1ccc(-n2cncn2)c(F)c1
[out] 0.708 µM (active)

[in] Input N#Cc1nc(-c2ccc(F)cc2)oc1N1CCCC1
[out] 0.178 µM (active)

[in] Input CN(C)c1ncc2ncc(=O)n(CCc3ccccc3)c2n1
[out] 0.794 µM (active)

----------
Biological target: Cytochrome P450 1A2 (Homo sapiens)
Assay: Cytochrome panel assay with activity outcomes
Conditions: recombinant CYP, pro-luciferin dealkylation, luminescence, p450-cyp1a2; series mostly up to 57.1 µM
Screen size: about 16,000 compounds; about 5,700 (36%) were called active. Inconclusive results (about 24%) are left out. The call rests on the fitted dose curve; in most records, active means well fitted curve in the direction sought with a large enough effect; inconclusive means small, poorly fitted or top-dose-only effect, or effect the other way; inactive means no such curve, though single readings can be large or run the other way. Some of the results follow.
Pick one and only one: 1.0 (active), 0.0 (inactive)

C=C1C(=O)C=C2CN(C(=O)c3ccccc3)[C@@](Cc3ccc(OC)cc3)(C(=O)OC)[C@@H]12 :: 1.0
C=CCn1c(Cc2ccc(OC)cc2)nnc1SCC(=O)c1cccc([N+](=O)[O-])c1 :: 0.0
COc1ccc(C(C(=O)NC2CCCCC2)N(C(=O)c2sc(C)nc2C)c2ccc(C(C)=O)cc2)cc1 (stereo not given) :: 0.0
O=C(CSc1nnc(-c2ccncc2)n1Cc1ccccc1)Nc1nccs1 :: 1.0
COC(=O)[C@@]1(Cc2ccc(F)cc2)[C@@H]2C(=CC(=O)[C@H]2CC(=O)C(=O)N2CCCC2)CN1C(=O)c1ccccc1 :: 0.0

[in] For COC(=O)[C@@]1(Cc2ccc(OC)cc2)[C@@H]2C(=CC(=O)[C@H]2CC(=O)C(=O)N2CCCC2)CN1C(=O)c1ccccc1 , what call appears in the results of this test?
[out] 0.0

[in] Input CCc1nnc(NC(=O)CSc2nc(C3CCCCC3)nc3ccccc23)s1
[out] 0.0

[in] Input CN1[C@@H]2CC[C@H]1CC(OC(c1ccccc1)c1ccccc1)C2 (stereo not given in full)
[out] 0.0

[in] Input Cn1c(=O)c(-c2cccc(Cl)c2)nc2cncnc21
[out] 1.0

[in] Input Cc1ccc2nc(/C(C#N)=C\c3ccc(OC(=O)c4cccs4)cc3)[nH]c2c1
[out] 1.0

[in] Input O=C(O)[C@@H](O)[C@@H](O)[C@@H](O[C@H]1O[C@@H](CO)[C@@H](O)[C@@H](O)[C@@H]1O)[C@@H](O)CO
[out] 0.0

[in] Input C=CCn1c(SCC(=O)Nc2ncc(Cc3ccc(Br)cc3)s2)nnc1-c1ccncc1
[out] 0.0

[in] Input Cc1ccc(S(=O)(=O)NC(=O)CSc2nc3ccccc3s2)cc1
[out] 0.0

[in] Input CCCC(=O)Nc1ccc2nc(SCC(=O)Nc3ccc(N4CCOCC4)c(Cl)c3)sc2c1
[out] 0.0

[in] Input COc1cc(NC(=O)c2c(F)cccc2F)nc(OC)n1
[out] 1.0

[in] Input O=C1OCC(c2ccccc2)=C1c1ccc(S(=O)(=O)N2CCOCC2)s1
[out] 1.0

[in] Input O=C(CSc1nc2ccccc2s1)Nc1nccs1
[out] 1.0

[in] Input C=CCn1c(COc2ccccc2)nnc1SCC(=O)N/N=C/c1ccc(C)cc1
[out] 1.0

[in] Input C[C@@]1(O)CCOC(=O)C1
[out] 0.0

[in] Input COC(=O)[C@@]1(Cc2ccc(F)cc2)[C@@H]2C(=CC(=O)[C@H]2CC(=O)C(=O)N(C)C)CN1C(=O)c1ccccc1
[out] 0.0
